B1: Segment polarity protein dishevelled homolog DVL-3, residues 2 to 81; numbered along this chain, Q92997 (parent)
chain: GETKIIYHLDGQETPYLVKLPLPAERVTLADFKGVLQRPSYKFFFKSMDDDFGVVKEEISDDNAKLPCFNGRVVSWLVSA

Variants of: B1
test_method_notes: abundance fitness (aPCA) (normalised: wild type 0, dead -1); higher = more abundant; growth selection in yeast, the domain comes from the species named
experimental_parameters: Homo sapiens
# label = y if abundance fitness >= -0.5 else n

Study these solved cases before continuing.
mutation_id: P39W
class_label: y
--
mutation_id: F44D
class_label: n
--
mutation_id: C68W
class_label: n
--
mutation_id: N63R
class_label: y
--
mutation_id: A80Y
class_label: y

[ask] Given `D49S` , state whether its abundance fitness is at least -0.5.
[reply] y

[ask] Has `M48F` a recorded abundance fitness greater than or equal to -0.5?
[reply] y
